# Test system: transgenic mice that express both human CETP and human apolipoprotein A-1
# assay_summary: In vivo assay of plasma lipids: elevation of HDL cholesterol
# measurement_setup: Mus musculus; single oral dose 30 mg/kg; HDL cholesterol in serum at 8 hr after administration; relative to a control; read-out: % HDL cholesterol increase
Where a name gives a salt, the structure may show the parent alone.

molecule	change in vivo at 30 mg/kg
Cc1cc2c(cc1C(F)(F)F)N(C(=O)OC(C)(C)C)CCC[C@@H]2N(Cc1cc(Cl)cc(C(F)(F)F)c1)c1nnn(C)n1 [Example 185]	155%
Cc1cc2c(cc1C(F)(F)F)N(C(=O)OC(C)C)CCC[C@@H]2N(Cc1cc(C(F)(F)F)cc(C(F)(F)F)c1)c1nnn(C)n1 [Example 16]	82%
Cc1cc2c(cc1C(F)(F)F)N(Cc1cncc(C(=O)O)c1)CCC[C@@H]2N(Cc1cc(C(F)(F)F)cc(C(F)(F)F)c1)c1nnn(C)n1 [Example 142, hydrochloride]	90%
Cc1cc2c(cc1C(F)(F)F)N(CCC(C)(C)CC(=O)O)CCC[C@@H]2N(Cc1cc(C(F)(F)F)cc(C(F)(F)F)c1)c1nnn(C)n1 [Example 32]	128%
Cc1cc2c(cc1C(F)(F)F)N(CCO)CCC[C@@H]2N(Cc1cc(C(F)(F)F)cc(C(F)(F)F)c1)c1nnn(C)n1 [Example 33]	354%
Cc1cc2c(c(C)c1C(F)(F)F)N(C[C@H]1CC[C@H](CC(=O)O)CC1)CCC[C@@H]2N(Cc1cc(Cl)cc(C(F)(F)F)c1)c1nnn(C)n1 [Example 201]	147%
Cc1cc2c(c(C)c1C(F)(F)F)N(C[C@H]1CC[C@H](CC(=O)O)CC1)CCC[C@@H]2N(Cc1cc(C(F)(F)F)cc(C(F)(F)F)c1)c1nnn(C)n1 [Example 153]	165%
Cc1c2c(cc3c1N(C[C@H]1CC[C@H](CC(=O)O)CC1)CCC[C@@H]3N(Cc1cc(C(F)(F)F)cc(C(F)(F)F)c1)c1nnn(C)n1)COC2 [Example 165]	177%
Cc1cc2c(cc1C(F)(F)F)N(Cc1ccc(C#N)cc1)CCC[C@@H]2N(Cc1cc(C(F)(F)F)cc(C(F)(F)F)c1)c1nnn(C)n1 [Example 192]	102%
Cc1cc2c(c(C)c1C(F)(F)F)N(Cc1ccc(C(=O)O)cc1)CCC[C@@H]2N(Cc1cc(C(F)(F)F)cc(C(F)(F)F)c1)c1nnn(C)n1 [Example 202]	206%
Cc1cc2c(cc1C(F)(F)F)N(CC1CC1)CCC[C@@H]2N(Cc1cc(Cl)cc(C(F)(F)F)c1)c1nnn(C)n1 [Example 196]	126%
Cn1nnc(N(Cc2cc(C(F)(F)F)cc(C(F)(F)F)c2)[C@H]2CCCN(CC3CCCC3)c3cc4c(cc32)CCCC4)n1 [Example 77]	229%
CCC(CC)OC(=O)N1CCC[C@H](N(Cc2cc(C(F)(F)F)cc(C(F)(F)F)c2)c2nnn(C)n2)c2cc(C)c(C(F)(F)F)cc21 [Example 18]	105%
Cc1cc2c(c(C)c1C(F)(F)F)N(CC1CC1)CCC[C@@H]2N(Cc1cc(Cl)cc(C(F)(F)F)c1)c1nnn(C)n1 [Example 200]	153%
Cc1c2c(cc3c1N(Cc1ccc(C(=O)O)cc1)CCC[C@@H]3N(Cc1cc(C(F)(F)F)cc(C(F)(F)F)c1)c1nnn(C)n1)COC2 [Example 166]	102%
Cn1nnc(N(Cc2cc(C(F)(F)F)cc(C(F)(F)F)c2)[C@H]2CCCN(CC3CCCC3)c3cc4c(cc32)OC(F)(F)O4)n1 [Example 178]	128%
Cc1cc2c(cc1C(F)(F)F)N(C(=O)OC1CCCC1)CCC[C@@H]2N(Cc1cc(C(F)(F)F)cc(C(F)(F)F)c1)c1nnn(C)n1 [Example 20]	72%
Cc1cc2c(c(C)c1C(F)(F)F)N(CC1CC1)CCC[C@@H]2N(Cc1cc(C(F)(F)F)cc(C(F)(F)F)c1)c1nnn(C)n1 [Example 148]	224%
